- Assay Target: UniProt P51681
- Sequence (P51681 whole entry, looked up, the tested form may be a part): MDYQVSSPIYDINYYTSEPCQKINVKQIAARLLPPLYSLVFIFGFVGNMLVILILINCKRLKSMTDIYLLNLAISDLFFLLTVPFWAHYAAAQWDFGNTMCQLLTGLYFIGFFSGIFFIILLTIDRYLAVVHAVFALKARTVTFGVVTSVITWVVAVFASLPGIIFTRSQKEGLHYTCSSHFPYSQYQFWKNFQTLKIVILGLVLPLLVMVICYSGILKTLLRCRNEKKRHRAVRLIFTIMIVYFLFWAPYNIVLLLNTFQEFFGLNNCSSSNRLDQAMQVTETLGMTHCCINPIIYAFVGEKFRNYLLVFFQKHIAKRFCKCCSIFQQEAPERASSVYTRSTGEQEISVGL
- Assay Procedure: Antagonist activity at human recombinant CCR5 expressed in human HeLa-P4 cells assessed as inhibition of human HeLa-P4 cells binding to HIV1 gp160 expressing CHO cells at 100 nM by cell-cell fusion assay
- Type: cell-based
- Design: scale not given: the % may be the effect or the level left
Catalogue of Activity readings, one per entry.
Answer format: numeric, % implied, no suffix.

Chemical Structure: Cc1ccnc(C)c1C(=O)NCCN1CCN(C(c2ccccc2)c2ccccc2)CC1
Activity [%]: 15
--
Chemical Structure: Cc1ccnc(C)c1C(=O)N1CCC(N(C)CCC(c2ccccc2)c2ccccc2)CC1
Activity [%]: 13
--
Chemical Structure: Cc1ccnc(C)c1C(=O)N1[C@@H]2CC[C@H]1C[C@H](N1CCN(C(c3ccccc3)c3ccccc3)CC1)C2
Activity [%]: 6

Next compound, Activity to be filled in.
# query: Activity of entry "Cc1ccnc(C)c1C(=O)N1C2CCC1CN(C1CCN(C(c3ccccc3)c3ccccc3)CC1)C2" 12
